Tested on: Tov-21-G
PROTOCOL_SUMMARY: Primary qHTS to identify gynecologic anti-cancer compounds using libraries of approved drugs and bioactive compounds (AID 1345084); note: nearly all actives have a fitted effect of over 55% in size
STUDY_CONDITIONS: Gynecologic cancer cell panel viability, ATPlite luminescence, 48 h; series mostly up to 57.5 µM
Results filed as inconclusive are left out. Calls of active or inactive are those of the source. Calls come from the whole dose curve; as a rule, active = well fitted cell-killing curve with a large enough effect; inconclusive = small, poorly fitted or top-dose-only effect, or effect the other way; inactive = flat fitted curve, though single readings scatter.

| COMPOUND | activity change, negative = cytotoxicity |
| --- | --- |
| COCC(=O)Nc1c(I)c(C(=O)NCC(O)CO)c(I)c(C(=O)N(C)CC(O)CO)c1I (configuration not stated) | inactive |
| OC(CCN1CCCC1)(c1ccccc1)C1CCCCC1 (configuration not stated) | inactive |
| Cc1c(C(=O)NCCO)[n+](=O)c2ccccc2n1[O-] | inactive |
| Cn1cc(C(=O)[C@@H]2CCc3nc[nH]c3C2)c2ccccc21 | inactive |
| CN1CCCN=C1COC(=O)C(O)(c1ccccc1)C1CCCCC1 (configuration not stated) | inactive |
| Cc1ncc(CO)c(CN)c1O | inactive |
| CC(=O)Nc1ccccc1 | inactive |
